Quick reference: Plant response rating, Foxtail, Giant of the listed items.
system: giant foxtail; assay: Test A pre-/postemergence herbicide test; assay type: in vivo, Setaria faberii; conditions: Postemergence, 500 g ai/ha; 0 to 100 scale (0 no effect, 100 complete control)
Please respond with just the number, no unit label.

In [3]: df
Out[3]:
                                   compound  reading
0  O=C1NCC(c2cccc(Cl)c2)C1C(=O)Nc1cccc(F)c1F (racemic)       90
1  O=C1NCC(c2cccc(Oc3ccccc3)c2)C1C(=O)Nc1ccc(F)c(F)c1F (stereo not drawn)       80
2  O=C1NCC(c2ccc3c(c2)OC(F)(F)O3)C1C(=O)Nc1cccc(F)c1F (stereo not drawn)       80
3  O=C1NCC(c2ccc(OC(F)F)cc2)C1C(=O)Nc1ccccc1F (stereo not drawn)       90
4  O=C1NCC(c2ccc(C(F)(F)F)nc2)C1C(=O)Nc1ccccc1C(F)(F)F (racemic)       80
5  O=C1NCC(c2cccc(Oc3ccccc3)c2)C1C(=O)Nc1ccccc1F (stereo not drawn)       80
6  CN1CC(c2ccc(C(F)(F)F)cc2)C(C(=O)Nc2ccccc2F)C1=O (stereo not drawn)       80
7  O=C1NCC(c2cccc(F)c2)C1C(=O)Nc1ccccc1F (racemic)       60
8  CC1NC(=O)C(C(=O)Nc2ccccc2C(F)(F)F)C1c1ccc(F)c(F)c1 (mixture of isomers)       30
9  O=C1NCC(c2cccc(-n3ccc(C(F)(F)F)n3)c2)C1C(=O)Nc1ccccc1C(F)(F)F (stereo not drawn)       30

# input Lab note: need Plant response rating, Foxtail, Giant for O=C1NCC(c2ccc(C(F)(F)F)nc2)C1C(=O)Nc1ccccc1F (racemic) on giant foxtail, anyone have it?
# output 70

# input Lab note: need Plant response rating, Foxtail, Giant for O=C1NCC(c2cc3ccccc3s2)C1C(=O)Nc1ccccc1C(F)(F)F (stereo not drawn) on giant foxtail, anyone have it?
# output 0

====

Quick reference: Plant response rating, Rice of the listed items.
test system: rice; assay: Test B flooded paddy test; assay type: in vivo, Oryza sativa; settings: 250 g ai/ha, Flood; scale of 0 to 100 where 0 is no effect and 100 is complete control
Please respond with just the number, no unit label.

                                   compound  reading
0  O=C1NCC(c2ccc(F)c(F)c2)C1C(=O)Nc1ccccc1Br (centres unmarked)       50
1  NC1=NCC(c2ccc(F)c(F)c2)C1C(=O)Nc1ccccc1F (centres unmarked)        0
2  O=C1NCC(c2cccc(Br)c2)C1C(=O)Nc1cccc(F)c1F (centres unmarked)       15

# input Quick check: Plant response rating, Rice of O=C1NCC(c2cc(F)c(F)c(F)c2)C1C(=O)Nc1ccccc1C(F)(F)F (racemic) ?
# output 0

# input Quick check: Plant response rating, Rice of O=C1NCC(c2ccc(F)c(C(F)(F)F)c2)C1C(=O)Nc1ccccc1F (racemic) ?
# output 0

====

system: ryegrass, Italian; assay: Test A pre-/postemergence herbicide test; format: in vivo, Lolium multiflorum; settings: 125 g ai/ha; visual rating, 0 to 100 scale, 0 no effect, 100 complete control; approximately 10 days; preemergence
From the text: […]
quantity_kind: Plant response rating, Ryegrass, Italian
Please respond with just the number, no unit label.

Here is how some molecules turned out for Plant response rating, Ryegrass, Italian.
In [3]: df
Out[3]:
                                   molecule        test_system  reading
0  O=C1NCC(c2cccc(OC(F)(F)C(F)F)c2)C1C(=O)Nc1ccccc1F (racemic)  ryegrass, Italian        0
1  Cc1ccc(C2CNC(=O)C2C(=O)Nc2ccccc2Cl)cc1 (racemic)  ryegrass, Italian        0
2  COc1ccc(C2CNC(=O)C2C(=O)Nc2ccccc2C(F)(F)F)cc1C(F)(F)F (stereo not shown)  ryegrass, Italian        0

# input Quick check: Plant response rating, Ryegrass, Italian of CON(C(=O)C1C(=O)NCC1c1ccc(F)c(F)c1)c1cc([N+](=O)[O-])ccc1F (stereo not shown) ?
# output 0

====

Quick reference: Plant response rating, Morningglory of the listed items.
tested on: morningglory; assay: Test C pre-/postemergence herbicide test; assay type: in vivo, Ipomoea coccinea; conditions: Preemergence, 125 g ai/ha; scale 0 to 100 (0 no effect, 100 complete control)
Please respond with just the number, no unit label.

Here is how some compounds turned out for Plant response rating, Morningglory.
>>> df
                                   compound  reading
0  O=C1NCC(c2ccccc2)C1C(=O)Nc1ccccc1F (racemic) [Compound 81]        0
1  O=C1NCC(c2cccc(C(F)(F)F)c2)C1C(=O)Nc1cccc(F)c1F (centres unmarked) [Compound 241]       10
2  Cc1ccccc1NC(=O)C1C(=O)NCC1c1cc(F)c(F)c(F)c1 (racemic) [Compound 35]       10

# input Quick check: Plant response rating, Morningglory of O=C1NCC(c2cc(F)c(F)c(F)c2)C1C(=O)Nc1ccccc1C(F)(F)F (racemic) [Compound 33] ?
# output 0

# input Quick check: Plant response rating, Morningglory of O=C1NCC(c2cccc(C(F)F)c2)C1C(=O)Nc1cccc(F)c1F (racemic) [Compound 211] ?
# output 0

====

system: ragweed; test: Test A pre-/postemergence herbicide test; format: in vivo, Ambrosia elatior; details: Postemergence, 500 g ai/ha
quantity_kind: Ragweed plant response rating (0 to 100 scale, 0 is no effect, 100 is complete control)
Please respond with just the number, no unit label.

# input Quick check: Ragweed plant response rating (0 to 100 scale, 0 is no effect, 100 is complete control) of O=C1NCC(c2cccc(C(F)(F)F)c2)C1C(=O)Nc1ccc(F)cc1F (racemic) [Compound 207] ?
# output 0

====

tested on: kochia; assay: Test A pre-/postemergence herbicide test; format: in vivo, Kochia scoparia; settings: 125 g ai/ha; visual rating, 0 to 100 scale, 0 no effect, 100 complete control; approximately 10 days; preemergence
quantity_kind: Plant response rating, Kochia
Please respond with just the number, no unit label.

Here is how some compounds turned out for Plant response rating, Kochia.
In [3]: df
Out[3]:
                                   compound  test_system  reading
0  O=C1NCC(c2cccc(OC(F)(F)C(F)F)c2)C1C(=O)Nc1ccc(F)c(F)c1F (racemic)       kochia       60
1  COc1ccc(C2CNC(=O)C2C(=O)Nc2cccc(F)c2F)cc1C(F)(F)F (stereo not shown)       kochia       20
2  O=C1NCC(c2ccc(OC(F)(F)C(F)F)cc2)C1C(=O)Nc1ccc(F)c(F)c1F (racemic)       kochia        0

# input Quick check: Plant response rating, Kochia of O=C1NCC(c2cccc(OC(F)F)c2)C1C(=O)Nc1ccccc1Cl (stereo not shown) ?
# output 0

====

Quick reference: Kochia plant response rating (0 to 100 scale, 0 is no effect, 100 is complete control) of the listed items.
test system: kochia; assay: Test A pre-/postemergence herbicide test; format: in vivo, Kochia scoparia; conditions: Postemergence, 500 g ai/ha
Please respond with just the number, no unit label.

                                   compound  reading
0  O=C1NCC(c2cccc(C(F)(F)F)c2)C1C(=O)Nc1cccc(F)c1 (racemic)       60
1  O=C1NCC(c2cccc(OC(F)(F)C(F)F)c2)C1C(=O)Nc1ccc(F)c(F)c1F (racemic)       80
2  O=C1NCC(c2cccc(C(F)(F)F)c2)C1C(=O)Nc1nncs1 (racemic)        0
3  Cc1ccc(C2CNC(=O)C2C(=O)Nc2ccccc2Cl)cc1 (racemic)       60
4  Cc1cc(NC(=O)C2C(=O)NCC2c2cccc(C(F)(F)F)c2)ccc1F (racemic)        0

# input Quick check: Kochia plant response rating (0 to 100 scale, 0 is no effect, 100 is complete control) of O=C1NCC(c2ccc(OC(F)F)cc2)C1C(=O)Nc1ccccc1Cl (stereo not shown) ?
# output 50

# input Quick check: Kochia plant response rating (0 to 100 scale, 0 is no effect, 100 is complete control) of O=C1NCC(c2cccc(OC(F)F)c2)C1C(=O)Nc1ccccc1Cl (stereo not shown) ?
# output 60

====

tested on: johnsongrass; test: Test C pre-/postemergence herbicide test; assay type: in vivo, Sorghum halepense; conditions: Preemergence, 31 g ai/ha; scale 0 to 100, 0 is no effect and 100 is complete control
quantity_kind: Johnsongrass plant response rating

>>> print(df.to_string())
                                   compound                       quantity_kind  reading
0  O=C(Nc1ccccc1F)C1C(=S)NCC1c1cccc(C(F)(F)F)c1 (stereo not shown) [Compound 274]  Johnsongrass plant response rating        0

# input Lab note: need Johnsongrass plant response rating for O=C1NCC(c2ccc(C(F)(F)F)cc2)C1C(=O)Nc1ccc(F)c(F)c1F (stereo not shown) [Compound 232] on johnsongrass, anyone have it?
# output 0

# input Lab note: need Johnsongrass plant response rating for Cc1cccc(NC(=O)C2C(=O)NCC2c2cccc(C(F)(F)F)c2)c1 (stereo not shown) [Compound 317] on johnsongrass, anyone have it?
# output 0

# input Lab note: need Johnsongrass plant response rating for O=C1NCC(c2cccc(C(F)(F)F)c2)C1C(=O)Nc1ccccc1Cl (stereo not shown) [Compound 312] on johnsongrass, anyone have it?
# output 30
